# Test system: NCI-H2405
# protocol.details: relative viability (nuclei count vs DMSO), 5 days (fraction); higher = more cells survive
# test.conditions: first compound 0.01 µM
Please respond with label 1 when measured relative viability is strictly beneath 0.7, and with label 0 in all other cases.

INSERT INTO results (compound, discrete_label) VALUES
  ('O=c1cc(N2CCOCC2)oc2c(-c3cccc4c3sc3ccccc34)cccc12 + O=C(c1cc(Cc2n[nH]c(=O)c3ccccc23)ccc1F)N1CCN(C(=O)C2CC2)CC1 [Olaparib] (partner 8 µM)', 'label 0'),
  ('O=c1cc(N2CCOCC2)oc2c(-c3cccc4c3sc3ccccc34)cccc12 + Nc1ncn([C@H]2C[C@H](O)[C@@H](CO)O2)c(=O)n1 [Decitabine] (partner 2 µM)', 'label 0'),
  ('CCN(CC)CCCCNc1ncc2cc(-c3cc(OC)cc(OC)c3)c(NC(=O)NC(C)(C)C)nc2n1 + CC(=O)c1c(C)c2cnc(Nc3ccc(N4CCNCC4)cn3)nc2n(C2CCCC2)c1=O [Palbociclib] (partner 0.5 µM)', 'label 1'),
  ('CCN(CC)CCCCNc1ncc2cc(-c3cc(OC)cc(OC)c3)c(NC(=O)NC(C)(C)C)nc2n1 + NC(=O)Nc1cc(-c2cccc(F)c2)sc1C(=O)N[C@H]1CCCNC1 [AZD7762] (partner 0.2 µM)', 'label 0'),
  ('CCN(CC)CCCCNc1ncc2cc(-c3cc(OC)cc(OC)c3)c(NC(=O)NC(C)(C)C)nc2n1 + COc1cccc2cc(-c3nc([C@H]4CC[C@H](C(=O)O)CC4)n4ncnc(N)c34)[nH]c12 [OSI-027] (partner 0.5 µM)', 'label 1');
